- Test system: ATP;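 also: ATP exposure 15 min at 22 °C before imaging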
- RUN DESCRIPTION: switch fluorescence ratio, 500 uM ATP over buffer (Cy3 cluster intensity, sum of 5 cycles each) (fold (ratio)); higher = stronger signal-on switching upon ATP binding; sequences stand for … in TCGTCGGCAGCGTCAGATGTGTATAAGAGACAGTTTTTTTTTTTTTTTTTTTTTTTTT…TC
- MEASUREMENT PARAMETERS: aptamer strand: ATP DNA aptamer (quencher-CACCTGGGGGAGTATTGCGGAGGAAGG + anchor), 100 nM annealed; ATP concentration: 500 uM
Below: a set of entries, each annotated with reported switch fluorescence ratio.
When you answer, write just the number.

Sample answers from the record:
> print(dat)
   sequence.chain                 observable    val
1      ATGGAGGGGA  switch fluorescence ratio      1
2      TTTAGGGCGG  switch fluorescence ratio  0.994
3      GGTTTCGGGT  switch fluorescence ratio  0.984
4      TGAAAGAACT  switch fluorescence ratio   1.16
5      ATACTGGGAT  switch fluorescence ratio   1.03

We next turn to a different sequence, shown below.
Input `ACGGCGAGGT` , output reported switch fluorescence ratio.
1.03

---

- Tested on: ATP;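 also: ATP exposure 15 min at 22 °C before imaging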
- RUN DESCRIPTION: switch fluorescence ratio, 500 uM ATP over buffer (Cy3 cluster intensity, sum of 5 cycles each) (fold (ratio)); higher = stronger signal-on switching upon ATP binding; sequences stand for … in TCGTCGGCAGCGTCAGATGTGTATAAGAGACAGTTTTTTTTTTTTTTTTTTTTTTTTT…TC
- MEASUREMENT PARAMETERS: aptamer strand: ATP DNA aptamer (quencher-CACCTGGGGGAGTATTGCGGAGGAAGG + anchor), 100 nM annealed; ATP concentration: 500 uM
OBSERVABLE: switch fluorescence ratio
When you answer, write just the number.

Sample answers from the record:
> print(dat)
   sequence.chain   val
1      AGAGTGGTGT     1
2      CGAGTAAACG  1.02
3      TCATGCGTAA  2.03

Input `TTGGGGATGT` , output reported switch fluorescence ratio.
1

Input `TGGGAGAAAC` , output reported switch fluorescence ratio.
1.09

Input `GTATTCGGGA` , output reported switch fluorescence ratio.
0.963

Input `TGTAAGGGAC` , output reported switch fluorescence ratio.
1.07

Input `CGTCACTAAT` , output reported switch fluorescence ratio.
1.21

Input `ATTAAGTGTG` , output reported switch fluorescence ratio.
0.996

Input `CCGTCTACTG` , output reported switch fluorescence ratio.
1.04

Input `TAAGGATTAT` , output reported switch fluorescence ratio.
1.01

Input `AATTATCCTT` , output reported switch fluorescence ratio.
1.07

Input `ATTTCAGTTG` , output reported switch fluorescence ratio.
1.01

Input `ATTAGGTATA` , output reported switch fluorescence ratio.
0.971

Input `TACCATTTTG` , output reported switch fluorescence ratio.
1

---

- Tested on: ATP;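 also: ATP exposure 15 min at 22 °C before imaging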
- RUN DESCRIPTION: switch fluorescence ratio, 500 uM ATP over buffer (Cy3 cluster intensity, sum of 5 cycles each) (fold (ratio)); higher = stronger signal-on switching upon ATP binding; sequences stand for … in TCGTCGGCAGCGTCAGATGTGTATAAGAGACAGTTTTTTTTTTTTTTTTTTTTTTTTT…TC
- MEASUREMENT PARAMETERS: aptamer strand: ATP DNA aptamer (quencher-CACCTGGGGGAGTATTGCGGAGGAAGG + anchor), 100 nM annealed; ATP concentration: 500 uM
Below: a set of entries, each annotated with reported switch fluorescence ratio.
When you answer, write just the number.

Sample answers from the record:
> print(dat)
   sequence.chain                 observable   val
1       TAGGCTCGG  switch fluorescence ratio  1.01
2      GTTATAAAAA  switch fluorescence ratio  1.01
3      TTGTCACAGC  switch fluorescence ratio  1.03
4      AGCAACATTA  switch fluorescence ratio  1.06
5      TGACGCAAAG  switch fluorescence ratio  1.63
6      TTGGCATGGC  switch fluorescence ratio  1.04

Input `CGGCATGCGG` , output reported switch fluorescence ratio.
1.02

Input `GGTGGGGATG` , output reported switch fluorescence ratio.
0.984

Input `AGTCGTTGGG` , output reported switch fluorescence ratio.
0.984

Input `TTCAATTCCG` , output reported switch fluorescence ratio.
1.03

Input `AACGTGATTA` , output reported switch fluorescence ratio.
1.07

Input `GCGTTGGAGC` , output reported switch fluorescence ratio.
0.995

Input `ACTTGGGGGA` , output reported switch fluorescence ratio.
0.991

Input `CGTTTAGTAG` , output reported switch fluorescence ratio.
1.03
